assay: Pharmacokinetics of decitabine in IVAP rabbit model; assay type: in vivo, rabbits; settings: rabbit, plasma, 2.5 mg/kg, PV 2.5 mg/kg; read-out: systemic Bioavailability, Mean
metric: bioavailability (%)
One number for each entry, in %.

Value lookup for bioavailability; key = Nc1ncn([C@H]2C[C@H](O)[C@@H](CO)O2)c(=O)n1 [decitabine, 5-aza-2′-deoxycytidine]
67.9

* * *

assay: Pharmacokinetics of decitabine in IVAP rabbit model; assay type: in vivo, rabbits; details: rabbit, plasma, iv, 0.75 mg/kg, IV 0.75 mg/kg; read-out: IV AUC0-inf, Mean
metric: AUC(0-inf)
Write down the value, and be sure its unit follows.

Could you share which AUC(0-inf) value was measured for Nc1ncn([C@H]2C[C@H](O)[C@@H](CO)O2)c(=O)n1 ?
340 ng·h/mL
